Cited source for all entries: patent US4923865A

TARGET OR TEST SYSTEM: presynaptic α2 -adrenergic receptors (Cavia porcellus)
Construct: Stimulation of a guinea-pig ileum; from tissue; host or cells: guinea-pig ileum longitudinal muscle strips
Sequence (Q60474 whole entry): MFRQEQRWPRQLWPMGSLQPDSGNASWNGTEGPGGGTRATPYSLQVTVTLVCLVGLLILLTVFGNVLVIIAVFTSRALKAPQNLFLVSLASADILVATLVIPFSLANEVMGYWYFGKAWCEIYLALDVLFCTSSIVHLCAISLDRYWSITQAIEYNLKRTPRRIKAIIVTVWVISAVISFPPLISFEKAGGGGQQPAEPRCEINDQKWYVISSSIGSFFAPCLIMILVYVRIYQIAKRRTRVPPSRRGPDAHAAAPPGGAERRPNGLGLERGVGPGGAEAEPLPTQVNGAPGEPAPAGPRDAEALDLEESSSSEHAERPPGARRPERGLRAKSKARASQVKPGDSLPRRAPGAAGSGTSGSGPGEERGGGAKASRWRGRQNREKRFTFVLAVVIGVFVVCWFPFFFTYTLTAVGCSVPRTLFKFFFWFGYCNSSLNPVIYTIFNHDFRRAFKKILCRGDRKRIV
ASSAY SUMMARY: Inhibition of the contraction of electrically stimulated guinea-pig ileum
ASSAY SETUP: in the presence of 10^-6 mole/l of α-yohimbine; read-out: concentration required for reducing muscle contraction intensity by 50%
pIC50: −log10 of the molar value.
# maps each entry to its pIC50

Ask | # pIC50 lookup, item CC(c1c[nH]cn1)c1cccc(C(N)=O)c1O.Cl (centres unmarked) [B, hydrochloride]
Reply | < 6.00

Ask | # pIC50 lookup, item Cl.NC(=O)c1cccc(Cc2c[nH]cn2)c1O [A, hydrochloride]
Reply | < 6.00

###

Tested on: myocardial ischemia
ASSAY SUMMARY: Artificially induced acute coronary insufficiency in an awake dog (ST-segment elevation)
Format: in vivo
ASSAY SETUP: Canis lupus familiaris, 0.1 h, intravenous, 6 min coronary occlusion, groups of ten animals, read-out: DE20 (dose producing a mean reduction of at least 20% of the ST-segment elevation)
QUANTITY KIND: ED20 (µmol/kg)
// return numeric value only (unit: µmol/kg, not printed)

Check out these entries, answers already filled in.
>>> print(df.to_string())
                                   molecule  quantity_kind  result_units  assay_value
0  CC(c1c[nH]cn1)c1cccc(C(N)=O)c1O.Cl (centres unmarked) [B, hydrochloride]           ED20       µmol/kg         0.02
1  Cl.NC(=O)c1cccc(Cc2c[nH]cn2)c1O [A, hydrochloride]           ED20       µmol/kg         0.03

Ask | # ED20 lookup, item NNC(=O)c1cccc(Cc2c[nH]cn2)c1O [Compound D]
Reply | 3

Ask | # ED20 lookup, item Cl.NC(=O)c1c(O)ccc(Cc2c[nH]cn2)c1O [I, hydrochloride]
Reply | 0.32

###

Tested on: male NMRI mice
ASSAY SUMMARY: Toxicity, Irwin's test (lethal dose)
Type: in vivo
ASSAY SETUP: intraperitoneal
Procedure: 5. Toxicity. The toxicity of the compounds according to the present invention has been determined in male NMRI mice by means of Irwin's test (S. IRWIN, Psychopharmacologia, 13, (1968), 222-257). Progressive doses of the test compound are administered intraperitoneally to groups of three mice until the lethal dose is reached (dose causing the death of two out of three animals within 48 hours). In Table IX below, the lethal dose in mg/kg found for the compounds of the invention is given. […]
# maps each entry to its lethal dose (death of two out of three animals within 48 hours)

Check out these entries, answers already filled in.
                                   compound  target_or_test_system  assay_value
0  CC(c1c[nH]cn1)c1cccc(C(N)=O)c1O.Cl (single isomer, unassigned; (+)) [P]         male NMRI mice    294 mg/kg
1        Cc1c(Cc2c[nH]cn2)ccc(O)c1C(N)=O.Cl         male NMRI mice  > 268 mg/kg
2        Cc1ccc(Cc2c[nH]cn2)c(O)c1C(N)=O.Cl         male NMRI mice  > 268 mg/kg

Ask | # lethal dose (death of two out of three animals within 48 hours) lookup, item `Cl.O=C(NO)c1cccc(Cc2c[nH]cn2)c1O`
Reply | > 288 mg/kg

Ask | # lethal dose (death of two out of three animals within 48 hours) lookup, item `Cl.NC(=O)c1c(O)ccc(Cc2c[nH]cn2)c1O`
Reply | > 270 mg/kg
